Where these numbers come from: patent US20250042872A1

# experimentalProtocol: Evaluation of solubility in biorelevant media (water, SGF, FaSSIF, FeSSIF), HPLC
# Assay type: physicochemical
# measurementSetup: FeSSIF, 37 °C, fessif, thermodynamic from solid, FeSSIF, 37° C., 1 h; read-out: Solubility-1 h Concentration
Structures can show the parent of a compound that is named as a salt.
observedProperty: solubility at 1 h (mg/mL)

compound	observedProperty	measuredResult
CNCc1cn(S(=O)(=O)c2ccc(OC)nc2)c(-c2ccccc2F)c1OC [Hydrochloride salt]	solubility at 1 h	4.45
CNCc1cn(S(=O)(=O)c2ccc(OC)nc2)c(-c2ccccc2F)c1OC.O=C(O)CCC(=O)O [Succinate salt]	solubility at 1 h	4.78
CNCc1cn(S(=O)(=O)c2ccc(OC)nc2)c(-c2ccccc2F)c1OC.O=C(O)C(O)C(O)C(=O)O [L-tartrate salt]	solubility at 1 h	4.55
